Attribution: the RNAGym collection of RNA variant scans (doi:10.1101/gad.245936.114)

Reported nonsense suppression values follow for various variants
B1: tRNA (parent)
chain: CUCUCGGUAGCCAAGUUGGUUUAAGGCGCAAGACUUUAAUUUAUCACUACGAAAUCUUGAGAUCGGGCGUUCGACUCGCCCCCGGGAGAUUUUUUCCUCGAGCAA

variants of: B1; assay: nonsense suppression (GFP-seq) (ratio to wild type); higher = more function; SUP4oc tRNA, yeast GFP reporter sort-seq
This sample holds only a part of the variants without activity.
When you answer, write just the number.

Worked set:
>>> value_observed("A54C C64U")
0.0402
>>> value_observed("U21A A54C G61A")
0.215
>>> value_observed("U20A G73C")
0.0366
>>> value_observed("C12U U55C")
0.0665
>>> value_observed("U21C G61A")
0.881
>>> value_observed("G84C G85C")
0.0289

Asked: Quickly give me recorded nonsense suppression for G10U C27A G85A
Given back: 0.159

Asked: Quickly give me recorded nonsense suppression for G61C G84U
Given back: 0.199

Asked: Quickly give me recorded nonsense suppression for C75A G78A
Given back: 0.698

Asked: Quickly give me recorded nonsense suppression for A60G A74C
Given back: 0.0318

Asked: Quickly give me recorded nonsense suppression for C11U U63G
Given back: 0.034

Asked: Quickly give me recorded nonsense suppression for U4A U16A
Given back: 0.215

Asked: Quickly give me recorded nonsense suppression for C29A G85A
Given back: 0.115
